Quick note: these are IC50 numbers for system: Cytochrome P450 2C9 (Homo sapiens, UniProt P11712)
Sequence (P11712 whole entry): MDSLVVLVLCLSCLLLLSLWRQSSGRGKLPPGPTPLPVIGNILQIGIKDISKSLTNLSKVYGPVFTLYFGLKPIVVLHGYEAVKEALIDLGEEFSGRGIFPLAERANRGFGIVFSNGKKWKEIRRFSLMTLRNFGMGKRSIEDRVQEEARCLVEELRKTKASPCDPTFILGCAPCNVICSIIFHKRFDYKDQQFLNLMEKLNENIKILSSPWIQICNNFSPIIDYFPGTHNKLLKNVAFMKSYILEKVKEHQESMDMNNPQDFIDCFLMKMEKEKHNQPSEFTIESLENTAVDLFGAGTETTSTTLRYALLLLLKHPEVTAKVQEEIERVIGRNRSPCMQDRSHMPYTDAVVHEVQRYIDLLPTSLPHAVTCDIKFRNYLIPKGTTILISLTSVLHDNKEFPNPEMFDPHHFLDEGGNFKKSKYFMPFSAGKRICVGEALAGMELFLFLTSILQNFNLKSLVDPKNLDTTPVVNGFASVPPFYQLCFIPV
property-measured: IC50 (µM)

compound: Cc1cccc(C)c1CNc1nccc2c1nc(C)n2C
assay-result: 68

1: Cc1cccc(C)c1CNc1nc(N2CCOCC2=O)cc2c(C)c(C)[nH]c12
2: Cc1cccc(C)c1CNc1nccc2c(C)c(C)[nH]c12
*Q* Which item exceeds the other in IC50, 1 or 2 ? // caller expects the label of the chosen entry
*A* 1
